Provenance of the data: the RNAGym collection of RNA variant scans (doi:10.1126/science.aae0568)

B1: tRNA (parent)
chain: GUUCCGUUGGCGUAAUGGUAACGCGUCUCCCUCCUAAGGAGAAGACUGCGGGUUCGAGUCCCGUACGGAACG

- Variants of: B1
- Method Notes: yeast fitness relative to wild type (ratio to wild type); higher = fitter; tRNA-Arg(CCU), competitive growth, 37 C, YPD
Fewer inactive variants are shown than the library holds.
Values of yeast fitness greater than or equal to 0.7 map to YES; values below map to NO.

| Primary Sequence | Class Assignment |
| --- | --- |
| GUUCCGUUGGCAUAAUGGUAACGCGUCUCCCUCCAAAGGAGAAGACUGCGGGUUCGAAUCCCGUACGGAACG [G12A U35A G58A] | NO |
| GUUUCGUAGGCGUAAUGGUAACGCGUCUCCCUUCUUAGGAGAAGACUGCGGGUUCGAGUCCCGUCCGGAACG [C4U U8A C33U A36U A65C] | NO |
| GUUCCGUUGGCGGAAUGGUAACGCGUCUCCCUCCUAAGGAGAAGACUGCGGGUUCGAGUCCCGUACGGAACG [U13G] | YES |
| GUUCCGUUGGCGUAAUGGUAACGCGUCUCCCUCCUCAGGAGAAGACUGCGGGUUCGAGUCCCGUAAGGAACG [A36C C66A] | NO |
| GUUCCGUUGGCGUAAUGGUAACGCGUCUCCCGCCUAAGGAGAAGACUGCGGGUUCGCGUCCGGUAGGGAACG [U32G A57C C62G C66G] | NO |

// inclusive: yeast fitness at least 0.7? input: GUUCCGUUGGCGUAAUGGUAACGAGUAACCCUCCUAAGGAGAAGACUGCGGGUUGGAGUCCCGUACGGAACG [C24A C27A U28A C55G]
NO

Exam item: decide whether the reported yeast fitness for GUUCCGUUGGCGGAAUGGUAACGCGUCUCCCUCCUAAGGAGAAGACUGGGGGUUCGAGUCCCGUACGGAACG [U13G C49G] is at least 0.7.
YES
